biological target: Histone-lysine N-methyltransferase EHMT2 (Homo sapiens); assay: Inhibition of EHMT2 (unknown origin) at 400 uM preincubated for 15 mins followed by SAM and biotinylated H3K9 peptide addition measured after 30 mins by TR-FRET assay relative to control
reported metric: inhibition (%)

Worked examples, 3 molecules total:
[
  {
    "smiles code": "Nc1ncnc2c1ncn2[C@@H]1O[C@H](C[C@H](N)CC2CCCCC2)[C@@H](O)[C@H]1O",
    "unit annotation": "%",
    "inhibition": 45.3
  },
  {
    "smiles code": "Nc1ncnc2c1ncn2[C@@H]1O[C@H](C[C@H](N)CC2CC2)[C@@H](O)[C@H]1O",
    "unit annotation": "%",
    "inhibition": 65.7
  },
  {
    "smiles code": "Nc1ncnc2c1ncn2[C@@H]1O[C@H](C[C@@H](N)CC2CCCCC2)[C@@H](O)[C@H]1O",
    "unit annotation": "%",
    "inhibition": 43.7
  }
]

[A] Nc1ncnc2c1ncn2[C@@H]1O[C@H](C[C@@H](N)CC2CC2)[C@@H](O)[C@H]1O
[B] CCN(CC1CCCCC1)C[C@H]1O[C@@H](n2cnc3c(N)ncnc32)[C@H](O)[C@@H]1O
[C] CCCN(CC1CCCCC1)C[C@H]1O[C@@H](n2cnc3c(N)ncnc32)[C@H](O)[C@@H]1O
Exercise: Hey, quick one: sort these by inhibition, largest value first please. Give the order by naming the labels one after another as requested.
Solution: A, B, C
